# Tested on: iCell cardiomyocytes (human iPSC-derived cardiomyocytes)
# experimental-details: Intracellular Ca2+ flux / beating parameters in iCell cardiomyocytes (FLIPR tetra), 90 min or 24 h
# Format: cell-based
# experimental-conditions: Homo sapiens, Cardiomyocyte, 1.5 h, 0.01 µM; 0.00 µM = 100.00; read-out: cm.amp.cv.90min
Where a name gives a salt, the structure may show the parent alone.
quantity-kind: activity at 0.01 µM (%)
Report the value in % with no unit label.

# input molecule: "Oc1cc(Cl)cc(-c2cccc(Cl)c2)c1" ; wanted: its activity at 0.01 µM
105

Try "Oc1ccccc1-c1ccc(Cl)cc1" next.
112

Try O=S(=O)(O)Oc1ccc(-c2cccc(Cl)c2)cc1Cl [4-yl PCB 11 sulfate] next.
88.2

Try "Clc1ccc(-c2ccccc2)cc1" next.
109

Try "Clc1cccc(-c2cccc(Cl)c2)c1" next.
103

Try O=S(=O)(O)Oc1cc(-c2ccccc2)ccc1Cl [3-yl PCB 3 sulfate] next.
101
